- Tested on: DMS 273 small cell lung
- MEASUREMENT DESCRIPTION: NCI tumour cell line growth inhibition, 48 h
TGI overview

COMPOUND: O=Cc1cc2c(cc1-c1cc3c(cc1C=O)OCO3)OCO2
TGI: > 100 µM
//
COMPOUND: CCOC(=O)/C=C1/C(CCCOCc2ccccc2)C2CCCC23CC2(CCN13)OCCO2 (stereo not drawn)
TGI: 37.9 µM
//
COMPOUND: C=CC1(C)CC(=O)C2(O)C(C)(O1)C(OC(C)=O)C(O)C1C(C)(C)CCC(O)C12C (stereo not drawn)
TGI: > 150 µM

----------
- Tested on: SR leukemia
- MEASUREMENT DESCRIPTION: NCI tumour cell line growth inhibition, 48 h

COMPOUND: O=C(CNc1ccc(Cl)cc1Cl)Nn1c(-c2ccccc2)nc2ccccc2c1=O
TGT: SR leukemia
VALUE COMPARATOR: >
TGI [µM]: 100
//
COMPOUND: O=C1C(=Nc2ccc(Nc3ccccc3)cc2)Oc2ccccc21
TGT: SR leukemia
VALUE COMPARATOR: =
TGI [µM]: 4.71
//
COMPOUND: Cc1ccc2c(c1)c1ccc3c(c1n2C)C(=O)C=CC3=O
TGT: SR leukemia
VALUE COMPARATOR: =
TGI [µM]: 0.871
//
COMPOUND: COc1ccc(N2C(=O)C3c4[nH]c5cc(C)ccc5c4C4CCC(C(C)(C)C)CC4C3C2=O)cc1 (stereo not given)
TGT: SR leukemia
VALUE COMPARATOR: >
TGI [µM]: 10
//
COMPOUND: CCOC(=O)c1c(C)c2c(n1Cc1ccccc1)CSCC2=O
TGT: SR leukemia
VALUE COMPARATOR: >
TGI [µM]: 100
//
COMPOUND: c1ccc(C(C(=Nc2ccc(Cc3ccc(N=C(C(c4ccccc4)c4ccccc4)N4CC4)cc3)cc2)N2CC2)c2ccccc2)cc1
TGT: SR leukemia
VALUE COMPARATOR: =
TGI [µM]: 15.7
//
COMPOUND: O=c1cccc(C#CC#C[C@@H]2O[C@H]2CO)o1
TGT: SR leukemia
VALUE COMPARATOR: >
TGI [µM]: 100
//
COMPOUND: CC(C)N1CCN(c2ccc(OCC3COC(Cn4cncn4)(c4ccc(Cl)cc4Cl)O3)cc2)CC1 (stereo not given)
TGT: SR leukemia
VALUE COMPARATOR: =
TGI [µM]: 12.1
//
COMPOUND: CCSc1nc(N=Cc2ccccc2O)c2cn[nH]c2n1
TGT: SR leukemia
VALUE COMPARATOR: >
TGI [µM]: 100
//
COMPOUND: [N-]=[N+]=CC(=O)OC(CCl)CCl
TGT: SR leukemia
VALUE COMPARATOR: >
TGI [µM]: 100

----------
- Tested on: HCT-116 colon
- MEASUREMENT DESCRIPTION: NCI tumour cell line growth inhibition, 48 h
Where a SMILES comes first, the peptide text is derived from it. [ ]: non-standard residue; d: D form. The star is where a group is joined. Cbz = O=C(OCc1ccccc1)*; Aib = CC(C)(N)C(=O)O; OBn = c1ccc(CO*)cc1
The following molecules are listed with their measured TGI values.

MOLECULE: C=CCn1c(=O)ccn(/C(=C/C(=O)OCC)C(=O)OCC)c1=O
TGI: > 41.5 µM
//
MOLECULE: CN1CC[C@]2(c3cccc(O)c3)CC(=O)/C(=C/c3ccccc3)[C@@H]1C2
TGI: 5.94 µM
//
MOLECULE: CN1CCN(Cc2cc3c(nn2)-c2ccccc2C3=O)CC1
TGI: > 100 µM
//
MOLECULE: CCCCCCCCc1cc2c(O)c(c1)Cc1cc(CCCCCCCC)cc(c1O)Cc1cc(CCCCCCCC)cc(c1O)Cc1cc(CCCCCCCC)cc(c1O)Cc1cc(CCCCCCCC)cc(c1O)Cc1cc(CCCCCCCC)cc(c1O)C2
TGI: > 100 µM
//
MOLECULE: CC(NC(=O)C(C)(C)NC(=O)C(CC(=O)OCc1ccccc1)NC(=O)OCc1ccccc1)C(N)=O (stereo not drawn) (Cbz-Asp(OBn)-[Aib]-Ala-NH2; configuration not given here)
TGI: > 100 µM
//
MOLECULE: COc1c2occc2c(N)c2ccc(=O)oc12
TGI: > 100 µM
//
MOLECULE: COc1cc(/C=C2\CCCCC3=C2N=C2SC(C)=CN2C3c2cc(OC)c(OC)c(OC)c2)cc(OC)c1OC (stereo not drawn)
TGI: > 100 µM
//
MOLECULE: O=C1NC(O)CCN1C1OC(CO)C(O)C1O (stereo not drawn)
TGI: > 141 µM

----------
- System: U251 CNS
- MEASUREMENT DESCRIPTION: NCI tumour cell line growth inhibition, 48 h
Recorded TGI for the following compounds

CHEMICAL SMILES: CO[C@@H]1CC[C@]2(C)OC[C@H](C)[C@@H]3C[C@@H](C)[C@@H](OC(C)=O)[C@@H]4[C@H]3[C@@H]2O[C@H]4C[C@@]1(C)O
TGI: > 100 µM
//
CHEMICAL SMILES: O=C1C=C(c2c(O)ccc3ccccc23)c2cc(O)ccc2C1=O
TGI: 28.4 µM
//
CHEMICAL SMILES: CCOC(=O)Nc1c(C)nc2ccccn12
TGI: > 100 µM

----------
- System: U251 CNS
Outcomes: T for active, F for inactive

CHEMICAL SMILES: NCCCn1c2c(c3ccc([N+](=O)[O-])cc3c1=O)C(=O)c1cc(I)ccc1-2
QUALITATIVE LABEL: T
//
CHEMICAL SMILES: C[C@H](CCOc1cccc(CC(=O)O)c1)N(Cc1cccc(C(F)(F)F)c1Cl)CC(c1ccccc1)c1ccccc1
QUALITATIVE LABEL: F
//
CHEMICAL SMILES: COC(=O)c1c2c(c(C)[n+]([O-])c1C)C(=O)C(NCc1ccc(Br)cc1)=CC2=O
QUALITATIVE LABEL: F
//
CHEMICAL SMILES: O=C(Nc1nc(-c2c[nH]c3ccccc23)cs1)c1n[nH]c(=O)c2ccccc12
QUALITATIVE LABEL: F
//
CHEMICAL SMILES: O=c1[nH]c(O)c(C=Nc2ccc(-c3nc4ccccc4o3)cc2)c(=O)[nH]1
QUALITATIVE LABEL: F
//
CHEMICAL SMILES: COc1cccc2c1O/C(=C\c1ccc([N+](=O)[O-])s1)C2=O
QUALITATIVE LABEL: F
//
CHEMICAL SMILES: Cc1nc2sccn2c1-c1nc2sccn2c1/C=C1/C(=O)Nc2ccccc21
QUALITATIVE LABEL: F
//
CHEMICAL SMILES: NNc1ncnc2nc[nH]c12
QUALITATIVE LABEL: F

----------
- Test system: OVCAR-3 ovarian
- MEASUREMENT DESCRIPTION: NCI tumour cell line growth inhibition, 48 h
Where a SMILES comes first, the peptide text is derived from it. [ ]: non-standard residue; d: D form. The star is where a group is joined. Cbz = O=C(OCc1ccccc1)*; Aib = CC(C)(N)C(=O)O; OBn = c1ccc(CO*)cc1
PROPERTY MEASURED: TGI (µM)

COMPOUND: O=C(O)C(O)C(O)C(O)C(O)CO (stereo not given)
PROPERTY MEASURED: TGI
RESULT UNITS: µM
VALUE COMPARATOR: >
NUMERIC RESULT: 100
//
COMPOUND: CN(Cc1cnc2nc(N)nc(N)c2n1)c1ccc(C(=O)N[C@@H](CCS(=O)(=O)O)C(=O)O)cc1
PROPERTY MEASURED: TGI
RESULT UNITS: µM
VALUE COMPARATOR: >
NUMERIC RESULT: 100
//
COMPOUND: CCN(CC)c1ccc(/C=C/c2ccnc3ccccc23)cc1
PROPERTY MEASURED: TGI
RESULT UNITS: µM
VALUE COMPARATOR: >
NUMERIC RESULT: 100
//
COMPOUND: C=C(C)[C@H]1C2=CC(C(=O)OC)=C(C[C@H](C(=C)C)[C@@H](O)[C@@H](O)C3=C[C@H]1OC3=O)O2
PROPERTY MEASURED: TGI
RESULT UNITS: µM
VALUE COMPARATOR: >
NUMERIC RESULT: 100
//
COMPOUND: C[C@@H]1CC[C@H]2[C@H]1[C@H]1[C@@H](CC[C@]2(C)N=C=S)C1(C)C
PROPERTY MEASURED: TGI
RESULT UNITS: µM
VALUE COMPARATOR: =
NUMERIC RESULT: 42.9
//
COMPOUND: O=C(CNc1ccc(Cl)cc1Cl)Nn1c(-c2ccccc2)nc2ccccc2c1=O
PROPERTY MEASURED: TGI
RESULT UNITS: µM
VALUE COMPARATOR: =
NUMERIC RESULT: 31.3
//
COMPOUND: CCOC(=O)C(NC(=O)CC)(N1CCN(c2cc3c(cc2F)c(=O)c(C(=O)O)cn3C2CC2)CC1)C(F)(F)F (stereo not given)
PROPERTY MEASURED: TGI
RESULT UNITS: µM
VALUE COMPARATOR: >
NUMERIC RESULT: 100
//
COMPOUND: CCCCCCCCCCCC[N+]12CC[N+](CCN)(CC1)CC2
PROPERTY MEASURED: TGI
RESULT UNITS: µM
VALUE COMPARATOR: >
NUMERIC RESULT: 100
//
COMPOUND: O=C1C(=Nc2ccc(Nc3ccccc3)cc2)Oc2ccccc21
PROPERTY MEASURED: TGI
RESULT UNITS: µM
VALUE COMPARATOR: =
NUMERIC RESULT: 4.42
//
COMPOUND: COc1ccc2oc(=N)c(C(=O)Nc3ccccc3)cc2c1
PROPERTY MEASURED: TGI
RESULT UNITS: µM
VALUE COMPARATOR: >
NUMERIC RESULT: 100
//
COMPOUND: COC(=O)C1=CN(CC2=CC(=O)C(C)=CC2=O)C=C(C(=O)OC)C1c1ccccc1OC
PROPERTY MEASURED: TGI
RESULT UNITS: µM
VALUE COMPARATOR: =
NUMERIC RESULT: 26.8
//
COMPOUND: CC1(C)C=CC(=O)C(O)C(C)(C)C1=O (stereo not given)
PROPERTY MEASURED: TGI
RESULT UNITS: µM
VALUE COMPARATOR: =
NUMERIC RESULT: 79.6
//
COMPOUND: CCOc1ccc(NC(=O)CC2SC(=Nc3ccc(C)cc3C)NC2=O)cc1 (stereo not given)
PROPERTY MEASURED: TGI
RESULT UNITS: µM
VALUE COMPARATOR: >
NUMERIC RESULT: 100
//
COMPOUND: COc1cccc2c1O/C(=C\c1ccc([N+](=O)[O-])s1)C2=O
PROPERTY MEASURED: TGI
RESULT UNITS: µM
VALUE COMPARATOR: =
NUMERIC RESULT: 4.53
//
COMPOUND: CC(NC(=O)C(C)(C)NC(=O)C(CC(=O)OCc1ccccc1)NC(=O)OCc1ccccc1)C(N)=O (stereo not given) (Cbz-Asp(OBn)-[Aib]-Ala-NH2; configuration not given here)
PROPERTY MEASURED: TGI
RESULT UNITS: µM
VALUE COMPARATOR: >
NUMERIC RESULT: 100
//
COMPOUND: CCOC(=O)/C=C1/C(CCCOCc2ccccc2)C2CCCC23CC2(CCN13)OCCO2 (stereo not given)
PROPERTY MEASURED: TGI
RESULT UNITS: µM
VALUE COMPARATOR: =
NUMERIC RESULT: 49.4
//
COMPOUND: CN(C)Cc1cc(C(=O)/C=C/c2ccc([N+](=O)[O-])cc2)cc(CN(C)C)c1O
PROPERTY MEASURED: TGI
RESULT UNITS: µM
VALUE COMPARATOR: =
NUMERIC RESULT: 20.6
//
COMPOUND: COC(=O)/C=C/c1cc(OC(C)=O)c2c(c1)C(C(=O)OC)C(c1ccc(OC(C)=O)c(OC(C)=O)c1)O2 (stereo not given)
PROPERTY MEASURED: TGI
RESULT UNITS: µM
VALUE COMPARATOR: =
NUMERIC RESULT: 15.8
//
COMPOUND: Cc1nc2sccn2c1-c1nc2sccn2c1/C=C1/C(=O)Nc2ccccc21
PROPERTY MEASURED: TGI
RESULT UNITS: µM
VALUE COMPARATOR: =
NUMERIC RESULT: 6.24
//
COMPOUND: COc1cc(Nc2ccc3c(c2)CCC3)nc(OC)n1
PROPERTY MEASURED: TGI
RESULT UNITS: µM
VALUE COMPARATOR: >
NUMERIC RESULT: 100

// provenance: PubChem BioAssay (NCI)
